- Test system: RXRa DBDmut IVT, anti-RXR (DBD mutation: RXRa K156A/R161A, NR concentration 90 nM)
- Procedure details: PBM binding z-score (relative to random genomic background probes); higher = stronger binding; sequences stand for … in GC…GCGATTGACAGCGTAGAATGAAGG
Reported property: PBM binding z-score

Below are worked cases with known answers.
ATCTCTAAGTAAAGATAGTTCAGTGAATGCAAAT | 0.232
TCATATAGGTAGTACAGGTGAAAGTCGGCATCTA | 1.32
GCATATACGTAATACAAGGTGAAAGTCCGATTGT | 0.892
TTATCAAGGTGAAGGTCGTTGATCCCTCTGTAGA | 0.598
CATACAGGGTCAGCTAGGCCACAGTAGGGACGGC | 1.69
CCGACTGGGGGATAAGGTTACCATAAGCCAGCCC | -0.00884
TAGCCTAGGTCATTCAGGGGCCAGTAGAGAAAGC | 1.84
CCTAGTTGGTCAGGAGGGCACACACCGGATATGA | -0.604
AGAATGAGGTTGTACGTAGATCAGGGAAGAAAGT | 0.679
AGCCAAAGTTCAGGACGAGGTAACGTAAAGCACG | 2.63

The reported value for AGAGCGAGGGCACGCTGAGTTGATAGCAGAGTAG in terms of PBM binding z-score is 1.28

The reported value for CTACCAAGGTGAACAAGGTCGTTGAGTACTATTC in terms of PBM binding z-score is 1.64

The reported value for CCGACTGGGGCCAAGGTTACCATACTCAGTACGA in terms of PBM binding z-score is 0.424

The reported value for GCTGCTAGGTCAACTGATGGTCCGCTAAAGCTCG in terms of PBM binding z-score is 1.53

The reported value for CCAGACACGTGAAAGGTAACTCAGTCTGGTACGC in terms of PBM binding z-score is 0.166

The reported value for ACTAGCAGGCCAAGTTTGGATCACTCAAACAAAG in terms of PBM binding z-score is -0.14

The reported value for CCTGCTAGGTCAATGGTCGGCTAAAGCAGCTCGC in terms of PBM binding z-score is 1.74

The reported value for TCATATAGGTAAAGGCTAGGTGAAAGTCCGATCT in terms of PBM binding z-score is 1.27

The reported value for TCTATTAGTTGATTACGGCAACCGAAACAGCGGA in terms of PBM binding z-score is 1.38

The reported value for ACTTACGGGACAACGAGGTTATAGCACGCGTATA in terms of PBM binding z-score is 0.749

The reported value for ACAGACAGGTGATGAAGTTAACTCAGGCTATCAT in terms of PBM binding z-score is -0.128

The reported value for TCTCGGAGGCCACGAAAGGTCAGAGCTCGACATC in terms of PBM binding z-score is 0.746

The reported value for CAAACTAGGTCATAGAGGTCAAAGTCCGTGCGTA in terms of PBM binding z-score is 3.57

The reported value for ACAGACAGGTGAGTGAAGGAAACTCAGCTGGACG in terms of PBM binding z-score is -0.324

The reported value for AGAACGAGGGCACGCTGAGTTGATAGCCGAGTAG in terms of PBM binding z-score is 1.99

The reported value for ACAGACAGGTGAGTGAAGGCAACTCAGCTGGACG in terms of PBM binding z-score is -0.43

###

# maps each entry to its PBM binding z-score
- Test system: RARg homodimer (NR concentration 270 nM)
- Procedure details: PBM binding z-score (relative to random genomic background probes); higher = stronger binding; sequences stand for … in GC…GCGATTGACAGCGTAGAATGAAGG

Below are worked cases with known answers.
CCTGCTAGGTCAATGGTCAGCGAAAGCAGCTCGC | 4.18
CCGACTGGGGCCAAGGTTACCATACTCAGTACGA | 1.17
CCGACTGGGGCAAGGTTGCCATAACGCACAGCCA | 0.556
AGTCAAAGTTCATCTAGATAACGTAAGATATGCT | 5.67

Noted PBM binding z-score for AGAATTAGGTTACCAAAGATCAGGGAAACGCTTG , tested on RARg homodimer (NR concentration 270 nM): 0.884

Noted PBM binding z-score for AGAATGAGGTTATACGTATATCAGGGAAGAAAGT , tested on RARg homodimer (NR concentration 270 nM): 1.35

Noted PBM binding z-score for GCTTACGGGTCAAAGGTAATAGCATGAATAGAAT , tested on RARg homodimer (NR concentration 270 nM): 4.22

Noted PBM binding z-score for GCATATAGGTAATACAAGGTAAAAGTCCGATTGT , tested on RARg homodimer (NR concentration 270 nM): 0.58

Noted PBM binding z-score for CCTTACGGGTCGCTCCAGGTTATAGCATCGGAGT , tested on RARg homodimer (NR concentration 270 nM): 1.08

Noted PBM binding z-score for CCGACTGGGGCAGCAAGGTTACCATACCATCCGG , tested on RARg homodimer (NR concentration 270 nM): 0.82

###

- Test system: PPARg homodimer (NR concentration 180 nM)
- Procedure details: PBM binding z-score (relative to random genomic background probes); higher = stronger binding; sequences stand for … in GC…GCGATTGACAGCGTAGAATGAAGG
# maps each entry to its PBM binding z-score

Below are worked cases with known answers.
TAGCATAGGTCATTGGGCCAGTATAGTACGCATC | 1.56
TCTGCTAGGTCAGTTGGTCAGCTAGCGAGCTGCC | -0.0101
GCTCGGAGGACATGGTCAGAGCTTTGTCCGTAGA | -2.26
ACTATTAGTTGACTTAGTGCAACCGATACGACGC | 0.732
CCAAGTTGGTCAGGAGGTCACACACCGGATATGA | 2.39
GCAGACAGGTGAAACACAGGTAACTCAGGGTGGC | -0.0531
TCTTGTAGATCAACAGGAGGTTAAAAAAGATCGA | -0.0647
ACTAGTTGGTCAGCTTAGGTCACACACAATTCGG | 1.88

The reported value for CTAACTAGGTCATTGACAGGACAGTGAATAGTAA in terms of PBM binding z-score is 0.99

The reported value for TAGCCTAGGTCAGATCGGGCCAGTTTACGCTATA in terms of PBM binding z-score is 0.0651

The reported value for CCTCGGAGCACAACAGGAGGTCAGAGCTGCCAGA in terms of PBM binding z-score is 1.23

The reported value for AATACAGGGTCATCGTAGGCAAGAGTACGCACAG in terms of PBM binding z-score is 4.01

The reported value for GCTATTAGTTGAAAGGGGAACCGAATGATTCTCG in terms of PBM binding z-score is 0.558

The reported value for GCTGCTAGGTCAGGTTGGTCAGCGAACGGGTACG in terms of PBM binding z-score is 0.933

The reported value for TCTATTAGTTGATTAGGGCAACCTAAACAGCGGA in terms of PBM binding z-score is 1.03

The reported value for TCTTGTAGATCAATAGAGGGTAAGAAAGTGCGCT in terms of PBM binding z-score is 0.572

###

# maps each entry to its PBM binding z-score
- Tested on: RARg:RXRa (NR concentration 270 nM, RXRa partner concentration 90 nM)
- Procedure details: PBM binding z-score (relative to random genomic background probes); higher = stronger binding; sequences stand for … in GC…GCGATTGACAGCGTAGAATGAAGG
# output: bare number, no unit

Below are worked cases with known answers.
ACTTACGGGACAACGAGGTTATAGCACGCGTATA | 0.768
GCGACTGGGGCAAAACAGGTTACCATAAGGTTGG | 0.535
AGTCAAAGTTCGTCTAGGTAACGTAAGATATGCT | 1.99
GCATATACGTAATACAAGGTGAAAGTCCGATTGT | 0.54
CGTCAAAGTTCAAGGTAACGTTACAGAAAGCAGC | 5.44

The reported value for AGAATGAGGTTTCCAAAGATCAGGGAAACGCTTG in terms of PBM binding z-score is -0.0652

The reported value for GGAACGAGGGCTTTCGAGTTGATAGCATGGCGAT in terms of PBM binding z-score is -0.258

The reported value for ATCTCTAGGTAACCAAGCTCAGTGAATGCCGAAC in terms of PBM binding z-score is 0.122

###

- System: PPARg:RXRa 90nM:30nM, anti-RXR (NR concentration 90 nM, RXRa partner concentration 30 nM)
- Procedure details: PBM binding z-score (relative to random genomic background probes); higher = stronger binding; sequences stand for … in GC…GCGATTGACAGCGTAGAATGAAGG
Label not met if PBM binding z-score falls below 2; label met in every other case.

TCTGCTAGCTCAGTTGGTCAGCTAACGAGCTGCC | not met

Is the recorded value of PBM binding z-score equal to or greater than 2 for this sequence? CCTCGGAGGACAACAGGCGGTCAGAGCTGCCAGA not met

Is the recorded value of PBM binding z-score equal to or greater than 2 for this sequence? CCTACTGGGCCAAAAAGGTCATTGCTGCCGATAA met

Is the recorded value of PBM binding z-score equal to or greater than 2 for this sequence? TAATATAGGTAAAAGGTGAAAGTCGGTGTGGTAA met

Is the recorded value of PBM binding z-score equal to or greater than 2 for this sequence? GAGACTGGGGCAAAGCAGGTTACCATAAGGTTGG not met

Is the recorded value of PBM binding z-score equal to or greater than 2 for this sequence? CCTTACGGGTCACTGACAGGGTATAGCATTTGGA met

Is the recorded value of PBM binding z-score equal to or greater than 2 for this sequence? TGAATGAGGTTAAAGTTCAGGGAACGTGGCGTCG met

Is the recorded value of PBM binding z-score equal to or greater than 2 for this sequence? CTCGAAAGGTCGGTTGAGGTGCGTATACGGATAA not met

Is the recorded value of PBM binding z-score equal to or greater than 2 for this sequence? ACAGACAGGTGATGAAGCTAACTCAGGCTATCAT not met

Is the recorded value of PBM binding z-score equal to or greater than 2 for this sequence? CCTAGCAGGCCAATCTGGGTCACACAAGGCTTGA met

Is the recorded value of PBM binding z-score equal to or greater than 2 for this sequence? CCAGACAGGTGAGTAGGTAACTCAGCCTCGATTA not met
